Experiment: Cmax in ICR mouse at 10 mg/kg, po measured after 0.083 to 48 hrs by LC-MS/MS analysis
Type: ADME, organism-based
Design: route oral, time upper 48 hrs, dose 10 mg/kg, time lower 0.083 hrs
Conditions: in vivo
MEASURED ATTRIBUTE: Cmax (ng/mL)
I only need the number, in ng/mL, no unit after it.

Determine its reported Cmax: `N#Cc1ccc(Nc2ncc(C(F)(F)F)c(N[C@H]3CC[C@H](N)CC3)n2)cn1`
371

---

Target: Serine/threonine-protein kinase Chk1 (Homo sapiens)
Sequence (O14757 whole entry): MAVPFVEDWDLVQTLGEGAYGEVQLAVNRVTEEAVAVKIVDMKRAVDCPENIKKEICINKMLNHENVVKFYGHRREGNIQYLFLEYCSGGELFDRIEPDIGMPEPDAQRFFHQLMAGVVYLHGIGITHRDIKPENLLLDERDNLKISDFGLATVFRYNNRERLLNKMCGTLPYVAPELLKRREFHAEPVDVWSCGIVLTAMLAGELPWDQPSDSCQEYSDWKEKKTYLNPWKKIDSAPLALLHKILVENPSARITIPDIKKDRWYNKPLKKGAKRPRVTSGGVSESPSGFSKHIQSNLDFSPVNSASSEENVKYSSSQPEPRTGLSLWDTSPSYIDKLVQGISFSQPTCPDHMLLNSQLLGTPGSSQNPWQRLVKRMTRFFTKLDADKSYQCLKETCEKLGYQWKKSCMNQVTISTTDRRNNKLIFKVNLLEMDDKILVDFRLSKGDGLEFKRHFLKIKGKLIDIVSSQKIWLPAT
Exercise: for every item that follows, state its recorded pIC50.
Schema: pIC50 number; meaning minus log10 of the concentration expressed in molar units.

Given `CNc1nc(Nc2cnc(C#N)c(N[C@H]3CC[C@H](N)CC3)c2)ncc1C(F)(F)F` , respond with its pIC50.
7.48

Please give the documented pIC50 of `N#Cc1ccc(Nc2ncc(C(F)(F)F)c(NCCCN)n2)cn1`
7.68

Note down pIC50 recorded for `N#Cc1ccc(Nc2ncc(C(F)(F)F)c(NC3CCNCC3)n2)cn1`
6.92

Please indicate pIC50 recorded for `CNc1nc(Nc2cnc(C#N)c(O[C@@H]3CCNC3)c2)ncc1C(F)(F)F`
7.67

Dear colleague, please send me the reported pIC50 for `CNc1nc(Nc2cnc(C#N)c(NC3CCNCC3)c2)ncc1C(F)(F)F` when you can.
7.00

State its pIC50: CNC(C)CCNc1nc(Nc2ccc(C#N)nc2)ncc1C(F)(F)F (stereo unspecified)
7.79
